Biological target: EPHB1 (UniProt P54762)
Sequence (P54762 whole entry, looked up): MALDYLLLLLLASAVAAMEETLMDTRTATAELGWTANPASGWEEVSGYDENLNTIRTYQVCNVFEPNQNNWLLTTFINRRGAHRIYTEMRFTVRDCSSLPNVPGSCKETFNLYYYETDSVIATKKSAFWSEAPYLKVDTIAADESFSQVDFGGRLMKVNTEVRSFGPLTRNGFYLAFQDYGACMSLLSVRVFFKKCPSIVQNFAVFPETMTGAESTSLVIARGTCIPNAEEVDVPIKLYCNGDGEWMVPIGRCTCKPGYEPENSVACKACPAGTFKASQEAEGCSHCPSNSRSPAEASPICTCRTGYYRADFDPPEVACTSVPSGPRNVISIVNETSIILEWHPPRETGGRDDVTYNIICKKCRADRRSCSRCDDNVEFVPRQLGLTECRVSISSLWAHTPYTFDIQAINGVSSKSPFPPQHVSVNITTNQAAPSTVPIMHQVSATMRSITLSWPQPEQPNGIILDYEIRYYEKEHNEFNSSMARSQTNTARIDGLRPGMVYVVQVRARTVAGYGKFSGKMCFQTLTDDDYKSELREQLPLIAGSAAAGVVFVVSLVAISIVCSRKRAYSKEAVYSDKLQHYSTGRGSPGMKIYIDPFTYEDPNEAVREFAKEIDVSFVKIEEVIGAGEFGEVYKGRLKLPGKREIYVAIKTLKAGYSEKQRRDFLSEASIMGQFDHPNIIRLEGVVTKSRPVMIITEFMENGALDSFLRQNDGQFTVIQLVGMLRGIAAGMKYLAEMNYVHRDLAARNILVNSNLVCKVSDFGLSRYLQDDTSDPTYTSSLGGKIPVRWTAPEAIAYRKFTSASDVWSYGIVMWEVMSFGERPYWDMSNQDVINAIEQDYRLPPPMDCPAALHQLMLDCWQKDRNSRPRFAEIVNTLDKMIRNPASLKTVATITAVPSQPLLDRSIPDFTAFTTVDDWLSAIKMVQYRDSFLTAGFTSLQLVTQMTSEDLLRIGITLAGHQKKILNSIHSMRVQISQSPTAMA
Assay: phosphorylation enrichment, bacterial display (enrichment ratio); higher = better substrate or ligand; peptides without Tyr show the background;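 further: 11-residue human phosphosite peptides and single-mutation variants displayed on the E. coli surface, counted by deep sequencing, each peptide's frequency after selection divided by its frequency in the unselected input library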;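 further: frequency after pTyr selection over input frequency; kinase dosed for 20-30% of maximal phosphorylation in three min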
Ranges used to classify phosphorylation enrichment: low = under 0.6, intermediate = from 0.6 up to 2, high = 2 and over

Could you place VDHFGYTKDDK [APOB_Y740] in its proper category? Many thanks.
low

Next sequence up: EDASEYFENYI [PARP4_Y214]
low

Next sequence up: KLPDAYERFIL [G6PD_Y437_L440F]
low

Next sequence up: PDGHEYIYVDP [PDGFRA_Y572]
high

Next sequence up: SEPDLYFDPRG [PKP1_Y160_C161Y_YF]
high

Next sequence up: PKSWNYELPAT [PROM1_Y34_A31S]
intermediate

Next sequence up: DGTGRYLCNAC [GATA5_Y208_H207R]
low

Next sequence up: SDYSSYARTSI [TERT_Y949]
intermediate

Next sequence up: ASTHIYQIMNH [ITK_Y588_V587I]
high

Next sequence up: HVLEEYKPKQG [SAXO2_Y37_P34L]
low
